Target: N-arachidonyl glycine receptor (Homo sapiens) (UniProt Q14330)
Sequence (Q14330 whole entry): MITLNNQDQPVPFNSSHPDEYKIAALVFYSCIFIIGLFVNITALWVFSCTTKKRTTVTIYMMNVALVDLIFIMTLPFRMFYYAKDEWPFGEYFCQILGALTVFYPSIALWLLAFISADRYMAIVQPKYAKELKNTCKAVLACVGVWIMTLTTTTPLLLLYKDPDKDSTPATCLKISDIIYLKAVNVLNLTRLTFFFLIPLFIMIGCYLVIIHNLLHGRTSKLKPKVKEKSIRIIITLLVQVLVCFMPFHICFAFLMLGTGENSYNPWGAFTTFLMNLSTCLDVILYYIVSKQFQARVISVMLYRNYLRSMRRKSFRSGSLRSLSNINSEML
Assay: Antagonist activity at recombinant human GPR18 expressed in CHO cells assessed as inhibition of delta9-THC-induced beta-arrestin recruitment preincubated for 60 mins followed by delta9-THC addition for 90 mins measured for 1 sec by luminescence assay
Format: functional, cell-based
// values below are reported Imax
Please respond with the number in % and leave the unit unwritten.

Here is how some compounds turned out for Imax.
[
  {
    "Structure notation": "CSC1=N/C(=C\\c2cccc(OCc3ccc(Cl)cc3)c2)C(=O)N1C",
    "Imax / %": 23
  },
  {
    "Structure notation": "O=C1/C(=C/c2cccc(OCCCCOc3ccc(Cl)cc3)c2)N=C2SCCCN12",
    "Imax / %": 116
  }
]

Exam item: # input compound: "O=C1N=C2SCCN2/C1=C\c1cccc(OCc2ccc(Cl)cc2)c1" ; wanted: its Imax
Marked response: 25

Exam item: Can you look up the measured Imax of "O=C1/C(=C/c2cccc(OCCOc3ccc(Cl)cc3)c2)N=C2SCCCN12" for me?
Marked response: 123

Exam item: # query: Imax of entry "Cc1ccc(OCCCCCCOc2cccc(/C=C3\N=C4SCCCN4C3=O)c2)cc1"
Marked response: 81

These entries and their values trace back to ChEMBL document CHEMBL4152303.
